systemTested: F protein of RSV strain 18537 B (infectious virus) (human respiratory syncytial virus …, UniProt P13843 26-574)
Sequence (P13843 26-574): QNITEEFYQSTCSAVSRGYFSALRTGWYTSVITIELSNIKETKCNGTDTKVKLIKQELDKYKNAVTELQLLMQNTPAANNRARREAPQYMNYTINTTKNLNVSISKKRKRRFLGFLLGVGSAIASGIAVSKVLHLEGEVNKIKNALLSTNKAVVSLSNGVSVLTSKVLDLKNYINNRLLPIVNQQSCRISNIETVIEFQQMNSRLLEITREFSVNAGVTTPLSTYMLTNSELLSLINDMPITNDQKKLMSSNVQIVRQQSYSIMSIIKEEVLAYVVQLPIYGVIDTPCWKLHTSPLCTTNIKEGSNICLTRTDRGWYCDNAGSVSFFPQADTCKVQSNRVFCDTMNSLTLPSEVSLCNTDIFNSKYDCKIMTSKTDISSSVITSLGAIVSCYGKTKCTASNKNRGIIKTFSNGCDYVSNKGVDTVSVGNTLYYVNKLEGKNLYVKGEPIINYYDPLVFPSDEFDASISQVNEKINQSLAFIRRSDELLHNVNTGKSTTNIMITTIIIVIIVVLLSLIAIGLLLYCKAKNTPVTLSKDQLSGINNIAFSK
procedureDetails: cell-based or functional assay
metricName: Neutralization IC50, plaque-reduction assay

Inquiry: Please report Neutralization IC50, plaque-reduction assay for the following binder: D25 (antibody, V domains shown) VH: QVQLVQSGAEVKKPGSSVMVSCQASGGPLRNYIINWLRQAPGQGPEWMGGIIPVLGTVHYAPKFQGRVTITADESTDTAYIHLISLRSEDTAMYYCATETALVVSTTYLPHYFDNWGQGTLVTVSS VL: DIQMTQSPSSLSAAVGDRVTITCQASQDIVNYLNWYQQKPGKAPKLLIYVASNLETGVPSRFSGSGSGTDFSLTISSLQPEDVATYYCQQYDNLPLTFGGGTKVEIKR
Reply text: > 1 µg/mL

Inquiry: Please report Neutralization IC50, plaque-reduction assay for the following binder: motavizumab (antibody, V domains shown) VH: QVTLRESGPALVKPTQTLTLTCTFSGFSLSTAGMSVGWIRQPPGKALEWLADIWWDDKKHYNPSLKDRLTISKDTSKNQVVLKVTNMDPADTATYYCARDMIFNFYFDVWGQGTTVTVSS VL: DIQMTQSPSTLSASVGDRVTITCSASSRVGYMHWYQQKPGKAPKLLIYDTSKLASGVPSRFSGSGSGTEFTLTISSLQPDDFATYYCFQGSGYPFTFGGGTKVEIK
Reply text: 0.091 µg/mL

Inquiry: Please report Neutralization IC50, plaque-reduction assay for the following binder: hRSV90 (antibody, V domains shown, also called mAb hRSV90) VH: EVQLVESGGGLVQPRRSLRLSCAASGFTFDDYTIHWVRQAPGKGLEWVSGITWNSGYIGYADSVKGRFTISRDNARNSLYLQMNSLRAEDTALYYCVRDAYVSGSDYYYYGLDVWGRGTLVTVSS VL: EIVMTSSPATLSVSPGERATLFCRASQSVISNLAWYQQKSGQAPRLLIYGASTRATGIPARFSGSGSGTEFTLTISSLQSEDFAVYFCQQYNNWPLTFGGGTQVNVQ
Reply text: 0.045 µg/mL

Inquiry: Please report Neutralization IC50, plaque-reduction assay for the following binder: hRSV139 (antibody, V domains shown) VH: QVQLVQSGAEVKKPGASVKVSCKASGYVFSNYGISWVRQAPGQGLEWMGWISAYNGNTEFAQKFQGRITMTTDTSTNTAYLEVRGLRSDDTAVYYCSRQSGVSGVPEFQDWGQGTLVTVSS VL: QAVVTQSPLSLPVTLGQPASISCRSSQSLVYSNGDTYLSWFQQRPGQSPRRLIYKVSNRDSGVPDRFSASGSGTDFTLKISRVEAEDVGVYYCMQGTHWPPPTFGQGTRLEIK
Reply text: 0.216 µg/mL

Inquiry: Please report Neutralization IC50, plaque-reduction assay for the following binder: hRSV106 (antibody, V domains shown) VH: QITLKESGPTLVKPTQTLTLTCTFSGFSLTTRGVGVAWIRQPPGKALEWLALIYWDDDKRYRSSPKGRLTITKDNSKNQVVLIMTNMDPVDTATYYCAHAMDDSGSYYVGLSKDPHFDSWGHGTLVTVSS VL: SYELTQPPSVSVSPGQTASITCSGDVLFNKFASWYQQKPGQSPVLVIYQDSKRPSGIPERFSGSNSGNTATLTIRGTQAMDEADYYCQARGSTAAHVIFGGGTKVTVL
Reply text: 0.114 µg/mL
